The following compounds are listed with their measured Recovery of Ammonium Nitrogen values.
test system: Nitrosomonas spp.; experiment: Nitrification of ammonium in soil incubated at 25° C. (ammonium recovery, nitrate accumulation); details: 0.50 ppm; week 16; soil 25° C.; 200 ppm N
Structures can show the parent of a compound that is named as a salt.
Give just the numeric value; PPM need not be written.

CC[C@@H](C(=O)[C@@H](C)[C@@H](O)[C@H](C)CCc1ccc(C)c(O)c1C(=O)O)[C@H]1O[C@](CC)([C@H]2CC[C@](O)(CC)[C@H](C)O2)C[C@@H]1C [Lasalocid sodium salt, Lasalocid] :: 175

Query CC[C@@]1([C@@H]2O[C@@H]([C@H]3O[C@@](O)(CO)[C@H](C)C[C@@H]3C)C[C@@H]2C)CC[C@H]([C@]2(C)CC[C@]3(C[C@H](O)[C@@H](C)[C@@H]([C@@H](C)[C@@H](OC)[C@H](C)C(=O)O)O3)O2)O1 [Monensin sodium salt, Monensin] yields Recovery of Ammonium Nitrogen of 110

Query CO[C@@H]1[C@@H](OC)[C@H](C)[C@@](O)(CC(=O)O)O[C@H]1[C@H](C)[C@H]1O[C@@]2(CC[C@@](C)([C@H]3CC[C@@](C)([C@@H]4O[C@@H]([C@H]5O[C@](C)(O)[C@H](C)C[C@@H]5C)C[C@@H]4O[C@@H]4C[C@H](OC)[C@@H](OC)[C@H](C)O4)O3)O2)C[C@H](O)[C@H]1C [Maduramicin monoammonium salt, Maduramicin] yields Recovery of Ammonium Nitrogen of 209

Query CC[C@@H](C(=O)[C@@H](C)[C@@H](O)[C@H](C)[C@@H]1O[C@@H]([C@@H](CC)C(=O)O)CC[C@@H]1C)[C@H]1O[C@]2(C=C[C@@H](O)[C@]3(CC[C@@](C)([C@H]4CC[C@](O)(CC)[C@H](C)O4)O3)O2)[C@H](C)C[C@@H]1C [Salinomycin monosodium salt, Salinomycin] yields Recovery of Ammonium Nitrogen of 205

Query `Clc1cccc(C(Cl)(Cl)Cl)n1` yields Recovery of Ammonium Nitrogen of 70

* * *

test system: Nitrobacter spp.; assay: Nitrite nitrogen in ammonium amended soil incubated at 25° C.; conditions: 0.25 ppm; week 4; soil 25° C.; 200 ppm N
Where a name gives a salt, the structure may show the parent alone.
metricName: Concentration of nitrite nitrogen (ppm)
Give just the numeric value; ppm need not be written.

Consider the following illustrative entries.
CO[C@@H]1[C@@H](OC)[C@H](C)[C@@](O)(CC(=O)O)O[C@H]1[C@H](C)[C@H]1O[C@@]2(CC[C@@](C)([C@H]3CC[C@@](C)([C@@H]4O[C@@H]([C@H]5O[C@](C)(O)[C@H](C)C[C@@H]5C)C[C@@H]4O[C@@H]4C[C@H](OC)[C@@H](OC)[C@H](C)O4)O3)O2)C[C@H](O)[C@H]1C [Maduramicin monoammonium salt, Maduramicin] :: 0
CC[C@@]1([C@@H]2O[C@@H]([C@H]3O[C@@](O)(CO)[C@H](C)C[C@@H]3C)C[C@@H]2C)CC[C@H]([C@]2(C)CC[C@]3(C[C@H](O)[C@@H](C)[C@@H]([C@@H](C)[C@@H](OC)[C@H](C)C(=O)O)O3)O2)O1 [Monensin sodium salt, Monensin] :: 7
CC[C@@H](C(=O)[C@@H](C)[C@@H](O)[C@H](C)[C@@H]1O[C@@H]([C@@H](CC)C(=O)O)CC[C@@H]1C)[C@H]1O[C@]2(C=C[C@@H](O)[C@]3(CC[C@@](C)([C@H]4CC[C@](O)(CC)[C@H](C)O4)O3)O2)[C@H](C)C[C@@H]1C [Salinomycin monosodium salt, Salinomycin] :: 7

Now take the following compound into account.
Query CC[C@@H](C(=O)[C@@H](C)[C@@H](O)[C@H](C)CCc1ccc(C)c(O)c1C(=O)O)[C@H]1O[C@](CC)([C@H]2CC[C@](O)(CC)[C@H](C)O2)C[C@@H]1C [Lasalocid sodium salt, Lasalocid] yields Concentration of nitrite nitrogen of 2

* * *

test system: Nitrosomonas spp.; assay: Nitrification of ammonium in soil incubated at 25° C. (ammonium recovery, nitrate accumulation); details: 0.25 ppm; week 4; soil 25° C.; 200 ppm N
Structures can show the parent of a compound that is named as a salt.
The following compounds are listed with their measured Concentration of nitrate nitrogen values.
Don't forget the unit after the value.

Consider the following illustrative entries.
CC[C@@H](C(=O)[C@@H](C)[C@@H](O)[C@H](C)[C@@H]1O[C@@H]([C@@H](CC)C(=O)O)CC[C@@H]1C)[C@H]1O[C@]2(C=C[C@@H](O)[C@]3(CC[C@@](C)([C@H]4CC[C@](O)(CC)[C@H](C)O4)O3)O2)[C@H](C)C[C@@H]1C [Salinomycin monosodium salt, Salinomycin] :: 23 PPM
CO[C@@H]1[C@@H](OC)[C@H](C)[C@@](O)(CC(=O)O)O[C@H]1[C@H](C)[C@H]1O[C@@]2(CC[C@@](C)([C@H]3CC[C@@](C)([C@@H]4O[C@@H]([C@H]5O[C@](C)(O)[C@H](C)C[C@@H]5C)C[C@@H]4O[C@@H]4C[C@H](OC)[C@@H](OC)[C@H](C)O4)O3)O2)C[C@H](O)[C@H]1C [Maduramicin monoammonium salt, Maduramicin] :: 19 PPM

Query CC[C@@]1([C@@H]2O[C@@H]([C@H]3O[C@@](O)(CO)[C@H](C)C[C@@H]3C)C[C@@H]2C)CC[C@H]([C@]2(C)CC[C@]3(C[C@H](O)[C@@H](C)[C@@H]([C@@H](C)[C@@H](OC)[C@H](C)C(=O)O)O3)O2)O1 [Monensin sodium salt, Monensin] yields Concentration of nitrate nitrogen of 23 PPM

Query CC[C@@H](C(=O)[C@@H](C)[C@@H](O)[C@H](C)CCc1ccc(C)c(O)c1C(=O)O)[C@H]1O[C@](CC)([C@H]2CC[C@](O)(CC)[C@H](C)O2)C[C@@H]1C [Lasalocid sodium salt, Lasalocid] yields Concentration of nitrate nitrogen of 28 PPM

Taken from patent US4746349A.
